Entry source: patent US6124305A

tested-system: rat plasma DPP-IV (Rattus norvegicus, UniProt P14740)
Construct: DPP-IV activity in human and rat plasma
Sequence (P14740 37-767 limits assumed): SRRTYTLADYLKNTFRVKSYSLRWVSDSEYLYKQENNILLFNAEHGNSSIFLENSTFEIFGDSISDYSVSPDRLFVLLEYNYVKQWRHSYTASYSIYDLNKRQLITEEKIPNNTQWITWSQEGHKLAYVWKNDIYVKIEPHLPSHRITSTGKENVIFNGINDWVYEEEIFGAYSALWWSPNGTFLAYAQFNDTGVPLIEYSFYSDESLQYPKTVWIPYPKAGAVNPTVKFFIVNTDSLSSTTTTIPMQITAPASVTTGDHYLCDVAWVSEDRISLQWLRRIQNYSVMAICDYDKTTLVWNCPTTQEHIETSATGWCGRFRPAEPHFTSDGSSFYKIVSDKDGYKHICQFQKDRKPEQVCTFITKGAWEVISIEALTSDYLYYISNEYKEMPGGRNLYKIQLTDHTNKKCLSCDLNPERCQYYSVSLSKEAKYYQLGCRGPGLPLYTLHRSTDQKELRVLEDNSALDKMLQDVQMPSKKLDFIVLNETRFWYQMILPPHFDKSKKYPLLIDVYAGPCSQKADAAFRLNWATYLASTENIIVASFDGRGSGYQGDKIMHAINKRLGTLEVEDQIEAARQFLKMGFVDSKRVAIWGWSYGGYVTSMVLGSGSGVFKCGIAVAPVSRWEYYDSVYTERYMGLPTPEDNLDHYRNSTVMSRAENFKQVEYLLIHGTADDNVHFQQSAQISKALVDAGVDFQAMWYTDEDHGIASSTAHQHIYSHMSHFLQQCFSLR
assay-comment: rat plasma DPP-IV inhibition assay
particulars: H-Glycine-Proline-AMC substrate, pH 7.8, room temperature, 20 min
Where a name gives a salt, the structure may show the parent alone.
endpoint-label: IC50 (µM)
Please state the figure in µM; there is no need to write the unit.

Before answering, review these 2 worked examples.
| compound | IC50 [µM] |
| --- | --- |
| CC(C)OCCCNCC(=O)N1CCC[C@H]1C#N [Ex. 12, monohydrochloride] | 0.038 |
| CCOc1ccc(CCNCC(=O)N2CCC[C@H]2C#N)cc1 [Ex. 16, monohydrochloride] | 0.06 |

// next entry
Look at this compound and give its reported IC50. N#C[C@@H]1CCCN1C(=O)CNCCc1ccccc1F [Ex. 42, monohydrochloride]
0.18
